System: Rattus norvegicus
assayText: Antiinflammatory activity in Wistar rat assessed as inhibition of carrageenan-induced hind paw edema at 100 mg/kg, po administered as gum arabic suspension 30 mins prior to carrageenin injection measured 3 hrs post-carrageenin injection
Assay type: functional
reportedProperty: inhibition in vivo at 100 mg/kg (%)
One number for each entry, in %.

Example molecules with recorded inhibition in vivo at 100 mg/kg:
[[record]]
moleculesmiles = "CCCCOc1cc(C(=O)N(C)CCN(CC)CC)nn1-c1ccccc1"
targetsystem = "Rattus norvegicus"
unitinfo = "%"
datavalue = 29.5

[[record]]
moleculesmiles = "CCCCOc1cc(C(=O)N2CCN(C(=O)c3cc(OCCCC)n(-c4ccccc4)n3)CC2)nn1-c1ccccc1"
targetsystem = "Rattus norvegicus"
unitinfo = "%"
datavalue = 0

[[record]]
moleculesmiles = "CCN(CC)CCNC(=O)c1cc(OC)n(-c2ccccc2)n1"
targetsystem = "Rattus norvegicus"
unitinfo = "%"
datavalue = 54.1

[[record]]
moleculesmiles = "CCCCOc1cc(C(=O)N(CC)CC)nn1-c1ccccc1"
targetsystem = "Rattus norvegicus"
unitinfo = "%"
datavalue = 44.1

[[record]]
moleculesmiles = "COc1cc(C(=O)N2CCN(CCO)CC2)nn1-c1ccccc1"
targetsystem = "Rattus norvegicus"
unitinfo = "%"
datavalue = 10.3

[[record]]
moleculesmiles = "COc1cc(C(=O)N2CCOCC2)nn1-c1ccccc1"
targetsystem = "Rattus norvegicus"
unitinfo = "%"
datavalue = 73.8

[[record]]
moleculesmiles = "COc1cc(C(=O)NC(C)C)nn1-c1ccccc1"
targetsystem = "Rattus norvegicus"
unitinfo = "%"
datavalue = 24.8

[[record]]
moleculesmiles = "COc1cc(C(=O)N(C)c2ccc(C)cc2)nn1-c1ccccc1"
targetsystem = "Rattus norvegicus"
unitinfo = "%"
datavalue = 22.3


Dear reader, for each entry below, please note its inhibition in vivo at 100 mg/kg.
1. CCCOc1cc(C(=O)N2CCOCC2)nn1-c1ccccc1
2. CC(C)Oc1cc(C(=O)N(C)C)nn1-c1ccccc1

1: 23.5; 2: 43.9

Which measured inhibition in vivo at 100 mg/kg value corresponds to `CCCCOc1cc(C(=O)N2CCN(CCOC(C)=O)CC2)nn1-c1ccccc1` ? 43.9

* * *

I'd be grateful if you could share measured inhibition in vivo at 100 mg/kg for these entries.
Test system: Rattus norvegicus
assayText: Antiinflammatory activity in Wistar rat assessed as inhibition of carrageenan-induced hind paw edema at 100 mg/kg, po administered as gum arabic suspension 30 mins prior to carrageenin injection measured 3 hrs post-carrageenin injection
Format: functional
Numbers only, in %.

[[record]]
moleculesmiles = "COc1cc(C(=O)Nc2cccc(C(F)(F)F)c2)nn1-c1ccccc1"
reportedproperty = "inhibition in vivo at 100 mg/kg"
datavalue = 20.9

[[record]]
moleculesmiles = "CCCCNC(=O)c1cc(OC)n(-c2ccccc2)n1"
reportedproperty = "inhibition in vivo at 100 mg/kg"
datavalue = 20.6

[[record]]
moleculesmiles = "CCCCOc1cc(C(=O)N(C)CCN(C)C)nn1-c1ccccc1"
reportedproperty = "inhibition in vivo at 100 mg/kg"
datavalue = 28.2


Dear reader, for each entry below, please note its inhibition in vivo at 100 mg/kg.
1. CCCCNC(=O)c1cc(OCCCC)n(-c2ccccc2)n1
2. CCCCOc1cc(C(=O)NC(C)C)nn1-c1ccccc1
3. CNC(=O)c1cc(OC)n(-c2ccccc2)n1

1. 43.3
2. 15.8
3. 57.9
